Target: TbTRF-lMyb280-382 (Trypanosoma brucei) (UniProt Q4VHG6)
Sequence: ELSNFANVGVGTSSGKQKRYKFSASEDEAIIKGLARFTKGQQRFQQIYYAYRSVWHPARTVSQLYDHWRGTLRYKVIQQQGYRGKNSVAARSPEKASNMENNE
Assay: EMSA
Reported Kd by item:
measurement_type: Kd (µM)

| item_sequence | measurement_type | observed_value |
| --- | --- | --- |
| UUAGGGUUAGGGUUAGGGUUAGGGUUAGGGUUAGGGUUAGGGUUAGGGUUAGGGUUAGGGUUAGGGUUAGGG [ss(UUAGGG)12] | Kd | 0.268 |
| CCCUAACCCUAACCCUAACCCUAACCCUAACCCUAACCCUAACCCUAACCCUAACCCUAACCCUAACCCUAA [ss(CCCUAA)12] | Kd | 17.2 |
